assay system: T1, DR4G146 (HLA DQB2:01, peptide CLIP) (human)
T1 construct: extracellular domain
experiment notes: MSD ECL; antigen coated; protocol of Example 3;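 also: antibody binding to plate-coated soluble HLA class II antigens carrying peptides fused at the beta-chain N-terminus, detected with a SulfoTag anti-human Kappa secondary antibody for 1 hour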
recorded endpoint: ECL signal (ECL)
Kindly provide the numeric value in ECL only, without the unit symbol.

Consider the following illustrative entries.
binder	display unit	quantitative result
DR4B127 (antibody, human IgG2, kappa, V domains shown, also called VH DR4H7 / VL PH9L3) VH: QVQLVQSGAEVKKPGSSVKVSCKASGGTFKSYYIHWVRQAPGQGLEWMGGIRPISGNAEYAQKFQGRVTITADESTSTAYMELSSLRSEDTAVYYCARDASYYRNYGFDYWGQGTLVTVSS VL: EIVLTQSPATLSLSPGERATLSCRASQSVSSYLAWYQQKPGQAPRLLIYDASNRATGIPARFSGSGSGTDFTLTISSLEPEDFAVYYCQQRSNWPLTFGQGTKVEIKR	ECL	2830
DR4B4 (antibody, V domains shown, also called Lym-1 re-engineered as IgG2sigma) VH: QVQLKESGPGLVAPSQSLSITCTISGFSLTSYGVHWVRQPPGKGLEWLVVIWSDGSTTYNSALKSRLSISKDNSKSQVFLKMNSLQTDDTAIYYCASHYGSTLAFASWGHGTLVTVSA VL: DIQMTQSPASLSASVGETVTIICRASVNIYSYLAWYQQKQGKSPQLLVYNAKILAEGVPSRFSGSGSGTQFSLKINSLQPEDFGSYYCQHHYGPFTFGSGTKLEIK	ECL	209
DR4B5 (antibody, V domains shown, also called apolizumab (1D10) re-engineered as IgG2sigma) VH: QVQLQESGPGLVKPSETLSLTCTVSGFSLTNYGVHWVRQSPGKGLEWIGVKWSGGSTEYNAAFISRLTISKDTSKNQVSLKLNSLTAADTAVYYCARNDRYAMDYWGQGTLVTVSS VL: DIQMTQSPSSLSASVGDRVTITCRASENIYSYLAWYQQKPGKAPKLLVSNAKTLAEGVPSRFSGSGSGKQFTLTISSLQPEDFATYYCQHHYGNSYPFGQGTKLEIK	ECL	736

Turning now to a further record.
Asked: Suppose we examine the binder DR4B6 (antibody, V domains shown, also called L243 re-engineered as IgG2sigma) VH: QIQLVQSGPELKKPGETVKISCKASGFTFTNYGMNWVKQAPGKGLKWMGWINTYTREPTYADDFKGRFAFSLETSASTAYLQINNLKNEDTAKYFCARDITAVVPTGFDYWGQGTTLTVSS VL: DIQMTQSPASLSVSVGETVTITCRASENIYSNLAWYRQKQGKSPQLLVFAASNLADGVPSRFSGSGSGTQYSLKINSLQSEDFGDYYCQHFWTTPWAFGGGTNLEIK ; what ECL signal value has been reported?
Given back: 1450
